The following compounds each carry a recorded pKi for Adenosine receptor A2a (Homo sapiens).
pKi is a log-scale quantity: -log10 of the concentration expressed in molar.

Item CC(=O)Oc1ccc(-c2cc3cccc(OC(C)=O)c3oc2=O)cc1OC(C)=O has what recorded pKi?
4.19

Item CC(=O)COc1cccc2cc(-c3ccccc3)c(=O)oc12 has what recorded pKi?
4.79

Item COc1cc(-c2cc3cccc(C)c3oc2=O)cc(OC)c1OC has what recorded pKi?
4.48

Item O=c1oc2c(O)c(O)ccc2cc1-c1ccccc1 has what recorded pKi?
4.92

Item O=c1oc2c(O)c(O)ccc2cc1-c1ccc(O)c(O)c1 has what recorded pKi?
4.59
